Values were extracted from patent US10233173B2.

- assay-system: human GluN1/GluN2B NMDA receptors (Homo sapiens, UniProt Q05586+Q13224)
- Sequence (Q13224 27-1484, other chains not shown): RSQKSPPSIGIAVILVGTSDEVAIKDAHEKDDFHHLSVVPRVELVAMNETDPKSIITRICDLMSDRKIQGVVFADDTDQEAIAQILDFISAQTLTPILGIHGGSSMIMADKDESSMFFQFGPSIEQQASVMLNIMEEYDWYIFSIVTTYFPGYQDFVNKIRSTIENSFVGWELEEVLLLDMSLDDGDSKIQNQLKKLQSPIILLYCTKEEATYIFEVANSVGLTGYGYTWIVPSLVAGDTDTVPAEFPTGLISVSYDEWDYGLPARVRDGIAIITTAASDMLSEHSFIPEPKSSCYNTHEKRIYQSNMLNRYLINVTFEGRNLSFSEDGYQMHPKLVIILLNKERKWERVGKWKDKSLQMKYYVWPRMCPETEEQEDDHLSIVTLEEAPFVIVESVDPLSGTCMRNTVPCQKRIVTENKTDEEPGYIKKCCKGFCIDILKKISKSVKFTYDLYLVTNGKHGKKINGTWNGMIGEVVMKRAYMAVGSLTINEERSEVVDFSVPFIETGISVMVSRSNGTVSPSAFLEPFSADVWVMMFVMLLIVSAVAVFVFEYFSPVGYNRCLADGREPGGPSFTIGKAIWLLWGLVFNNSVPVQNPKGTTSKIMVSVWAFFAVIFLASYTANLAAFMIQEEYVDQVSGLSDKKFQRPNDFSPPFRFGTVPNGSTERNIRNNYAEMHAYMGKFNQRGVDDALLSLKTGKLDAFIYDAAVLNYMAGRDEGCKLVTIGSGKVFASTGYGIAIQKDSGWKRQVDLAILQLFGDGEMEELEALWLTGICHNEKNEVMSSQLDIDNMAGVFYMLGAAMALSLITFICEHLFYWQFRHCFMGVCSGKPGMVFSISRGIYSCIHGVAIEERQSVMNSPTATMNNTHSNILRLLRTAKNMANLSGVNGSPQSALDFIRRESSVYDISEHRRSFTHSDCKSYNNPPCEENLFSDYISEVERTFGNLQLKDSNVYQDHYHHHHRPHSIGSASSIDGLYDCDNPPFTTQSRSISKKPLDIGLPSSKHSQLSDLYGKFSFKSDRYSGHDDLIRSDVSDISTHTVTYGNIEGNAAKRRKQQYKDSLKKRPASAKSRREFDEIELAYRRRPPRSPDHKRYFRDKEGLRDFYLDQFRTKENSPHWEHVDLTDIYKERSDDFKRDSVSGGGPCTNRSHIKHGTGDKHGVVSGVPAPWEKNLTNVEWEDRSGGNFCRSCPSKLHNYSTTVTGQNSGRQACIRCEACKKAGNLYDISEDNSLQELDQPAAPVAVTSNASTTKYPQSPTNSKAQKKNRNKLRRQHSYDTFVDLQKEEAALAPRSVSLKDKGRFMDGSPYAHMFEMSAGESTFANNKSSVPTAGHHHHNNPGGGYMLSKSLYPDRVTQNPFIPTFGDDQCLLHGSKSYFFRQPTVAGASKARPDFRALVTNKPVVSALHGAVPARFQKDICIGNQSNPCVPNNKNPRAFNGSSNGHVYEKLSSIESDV
- assay-text: Cell-based calcium flux (FLIPR) assay on cloned human NR1/NR2B ion channels expressed in mammalian cells
- cond: standard assay; glutamate at ~EC80; FLIPR calcium flux
Friendly reminder: IC50 below 0.07 µM is Y, at or above is N.

{"columns": ["molecule", "assigned-class"],
 "data": [
  ["Cc1cnc(OCc2cn(-c3ccc(N4CCC4)c(C(F)F)c3)nn2)nc1", "N"],
  ["Fc1cnc(OCc2cn(-c3ccc(F)c(OC(F)F)c3)nn2)nc1", "Y"],
  ["COc1nc(OCc2cn(-c3ccc(F)c(C(F)F)c3)nn2)ncc1C", "Y"],
  ["Cc1ccc(F)c(-n2cc(COc3ncc(Cl)c(C)n3)nn2)c1", "N"],
  ["Fc1ccc(-n2cc(COc3nccc(C(F)F)n3)nn2)cc1C(F)F", "Y"],
  ["COCc1ccnc(OCc2cn(-c3ccc(F)c(Cl)c3)nn2)n1", "Y"],
  ["CC(O)c1cnc(OCc2cn(-c3ccc(Cl)c(C(C)(F)F)c3)nn2)nc1 (racemic)", "Y"],
  ["Cc1c(F)ccc(-n2cc(COc3ncc(C(F)F)cn3)nn2)c1F", "N"],
  ["Cc1nc(OCc2cn(-c3cccc(F)c3C)nn2)ncc1F", "N"],
  ["CC(F)(F)c1cc(-n2cc(COc3nccc(N4CCCC4)n3)nn2)ccc1F", "Y"],
  ["Fc1cccc(OCc2cn(-c3ccc(Cl)c(OC(F)F)c3)nn2)n1", "N"],
  ["CN(C)c1ccnc(OCc2cn(-c3ccc(Cl)c(C(F)F)c3)nn2)n1", "Y"],
  ["Cc1ccc(OCc2cn(-c3ccc(F)c(C(F)(F)F)c3)nn2)nc1", "N"],
  ["Cc1nc(OCc2cn(-c3ccc(C(F)(F)F)s3)nn2)ncc1F", "Y"],
  ["Cc1cnc(OCc2cn(-c3ccc(F)c(OC(F)F)c3)nn2)nc1N", "Y"],
  ["CC(=O)c1cnc(OCc2cn(-c3ccc(F)c(C(F)(F)F)c3)nn2)nc1", "Y"],
  ["CC(F)(F)c1cc(-n2cc(COc3nccc(C(F)F)n3)nn2)ccc1Cl", "Y"],
  ["Cc1cnc(OCc2cn(-c3ccc(F)c(F)c3)nn2)nc1", "Y"],
  ["Cc1nc(OCc2cn(-c3ccc(F)c(C(C)(F)F)c3)nn2)ncc1Cl", "Y"],
  ["CNc1ccnc(OCc2cn(-c3ccc(F)c(OC(F)F)c3)nn2)n1", "Y"],
  ["CCc1cnc(OCc2cn(-c3ccnc(C(F)(F)F)c3)nn2)nc1", "N"],
  ["Cc1c(F)cccc1-n1cc(COc2ncc(Cl)cn2)nn1", "N"],
  ["CC(O)c1cnc(OCc2cn(-c3ccc(F)c(C(F)(F)F)c3)nn2)nc1 (racemic)", "Y"],
  ["CNc1nc(OCc2cn(-c3ccc(F)c(OC(F)F)c3)nn2)ncc1C", "N"],
  ["CC(F)(F)c1cc(-n2cc(COc3nccc(N)n3)nn2)ccc1F", "N"],
  ["COCc1ccnc(OCc2cn(-c3ccc(F)c(C(F)(F)F)c3)nn2)n1", "N"],
  ["CN(C)c1ccnc(OCc2cn(-c3ccc(F)c(C(F)(F)F)c3)nn2)n1", "Y"],
  ["COc1ccnc(OCc2cn(-c3ccc(Cl)c(C(C)(F)F)c3)nn2)n1", "Y"],
  ["Cc1cnc(OCc2cn(-c3cccc(C)c3F)nn2)nc1", "N"],
  ["FC(F)c1cc(-n2cc(COc3ncc(C4CC4)cn3)nn2)ccc1Cl", "Y"],
  ["FCCOc1cnc(OCc2cn(-c3ccc(Cl)c(C(F)F)c3)nn2)nc1", "Y"],
  ["Cc1cnc(OCc2cn(-c3ccc(C)c(OC(F)F)c3)nn2)nc1", "Y"],
  ["Cc1nc(OCc2cn(-c3ccc(F)c(C)c3F)nn2)ncc1Cl", "Y"],
  ["FC(F)c1cc(-n2cc(COc3nccc(N4CCCCC4)n3)nn2)ccc1Cl", "N"],
  ["FC1CN(c2cnc(OCc3cn(-c4ccc(Cl)c(OC(F)F)c4)nn3)nc2)C1", "Y"],
  ["CC(O)(c1cnc(OCc2cn(-c3ccc(F)c(C(F)(F)F)c3)nn2)nc1)C(F)(F)F (racemic)", "N"]
]}

---

- assay-system: human GluN1/GluN2B NMDA receptors (Homo sapiens, UniProt Q05586+Q13224)
- assay-text: Cell-based calcium flux (FLIPR) assay on cloned human NR1/NR2B ion channels expressed in mammalian cells
- cond: standard assay; human GluN1/GluN2B, calcium flux (FLIPR), glutamate ~EC80
measurement-name: log10 of IC50 (log10 of the value in µM)

{"columns": ["compound", "log10 of IC50"],
 "data": [
  ["FC(F)(F)c1cnc(OCc2cn(-c3ccc(Cl)cc3)nn2)nc1 [Example 226]", -0.81],
  ["Cc1cccc(-n2cc(COc3ncc(C)c(C)n3)nn2)c1 [Example 251]", -2.70],
  ["Cc1nc(OCc2cn(-c3cccc(C(C)(F)F)c3)nn2)ncc1F [Example 313]", -2.30],
  ["Cc1ccnc(OCc2cn(-c3ccc(F)c(Br)c3)nn2)n1 [Example 17]", -2.00],
  ["Cc1ccnc(OCc2cn(-c3cccc(OC(F)(F)F)c3)nn2)n1 [Example 347]", -0.86],
  ["CC(C)Oc1ccnc(OCc2cn(-c3ccc(Cl)c(OC(F)F)c3)nn2)n1 [Example 386]", -0.30],
  ["FC(F)Oc1cc(-n2cc(COc3ncc(C(F)F)cn3)nn2)ccc1Cl [Example 96]", -2.10],
  ["FC(F)c1cnc(OCc2cn(-c3cccc(C(F)(F)F)c3)nn2)nc1 [Example 289]", -1.43],
  ["CCc1cnc(OCc2cn(-c3ccc(Cl)c(OC(F)F)c3)nn2)nc1 [Example 27]", -2.05],
  ["CC(F)(F)c1cccc(-n2cc(COc3ncc(C(C)(O)C(F)(F)F)cn3)nn2)c1 (racemic) [Example 305]", -0.30],
  ["Fc1ccc(-n2cc(CNc3ncccn3)nn2)cc1C(F)(F)F [Example 3]", 0.45],
  ["CC(F)(F)c1cccc(-n2cc(COc3ncc(N4CCC4)cn3)nn2)c1 [Example 320]", -1.21],
  ["FC(F)Oc1cc(-n2cc(COc3nccc(Cl)n3)nn2)ccc1Cl [Example 190]", -1.59],
  ["CC(C)(O)c1cnc(OCc2cn(-c3ccc4c(c3)CCC4)nn2)nc1 [Example 369]", -0.76],
  ["Cc1ccnc(OCc2cn(-c3ccc(F)c(OC(F)F)c3)nn2)c1 [Example 116]", -0.99],
  ["CNc1ccnc(OCc2cn(-c3cccc(OC(F)(F)F)c3)nn2)n1 [Example 352]", -1.17],
  ["Cc1c(F)ccc(-n2cc(COc3ncc(Cl)cn3)nn2)c1F [Example 37]", -1.28],
  ["CCc1cnc(OCc2cn(-c3cccc(C)c3)nn2)nc1 [Example 245]", -2.00],
  ["CC(C)c1cnc(OCc2cn(-c3ccc(F)c(C(F)(F)F)c3)nn2)nc1 [Example 75]", -1.59],
  ["CCc1cnc(OCc2cn(-c3ccc(Cl)c(C(F)F)c3)nn2)nc1 [Example 32]", -2.70],
  ["CNc1nc(OCc2cn(-c3cccc(C(C)(F)F)c3)nn2)ncc1F [Example 315]", -0.80],
  ["Cc1cccc(-n2cc(COc3ncc(C)c(N)n3)nn2)c1 [Example 254]", -0.82],
  ["Fc1ccc(-n2cc(COc3nccc(N4CCCCC4)n3)nn2)cc1OC(F)F [Example 169]", -1.51],
  ["COC(=O)c1ccnc(OCc2cn(-c3ccc(Cl)c(OC(F)F)c3)nn2)n1 [Example 387]", -1.17],
  ["Clc1cnc(OCc2cn(-c3ccc4c(c3)CCC4)nn2)nc1 [Example 367]", -1.28],
  ["CC(C)c1cnc(OCc2cn(-c3cccc(C(F)(F)F)c3)nn2)nc1 [Example 288]", -1.40],
  ["COc1ccnc(OCc2cn(-c3cccc(C(C)(F)F)c3)nn2)n1 [Example 307]", -1.48],
  ["Cc1cnc(OCc2cn(-c3ccc(F)c(Br)c3)nn2)nc1C [Example 85]", -2.52],
  ["Fc1ccc(-n2cc(CNc3ccccn3)nn2)cc1C(F)F [Example 215]", -0.01],
  ["Cc1cnc(OCc2cn(-c3ccc4c(c3)OC(F)(F)O4)nn2)nc1C [Example 359]", -2.05],
  ["Cc1cnc(OCc2cn(-c3cccc(C(F)F)c3)nn2)nc1N(C)C [Example 281]", -0.89],
  ["Cc1cnc(OCc2cn(-c3ccc(F)c(Br)c3)nn2)nc1 [Example 16]", -3.00],
  ["Cn1ccc(NCc2cn(-c3ccc(F)c(C(F)F)c3)nn2)n1 [Example 100]", -0.05],
  ["Cc1cnc(OCc2cn(-c3cccc(C(C)(F)F)c3)nn2)nc1 [Example 297]", -2.30],
  ["Cc1ccnc(OCc2cn(-c3ccc(F)c(C(F)F)c3)nn2)n1 [Example 52]", -2.10]
]}
